Record form. Attribute: protein stability index. Fill in for each entry.
B1: SNAP91 (parent)
chain: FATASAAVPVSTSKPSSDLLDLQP

Variants of: B1
Run Description: protein stability index of a GFP-peptide fusion (GPS, HEK-293T) (PSI 1-6); higher = more stable;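 note: lentivirally expressed fusions sorted by FACS into six bins by GFP to DsRed ratio, PSI derived from sequencing read proportions per bin multiplied by bin number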
Protocol Conditions: c terminus: a fixed tail appended
Simply state the number, no unit and no words.

Measured protein stability index of L22W : 2.96

D21I has a reported protein stability index of 2.93

Field protein stability index (entry V8Y ) reads 3.09

The recorded protein stability index for entry S16F equals 2.99
